Reported kon values follow for various binders
# test_system: feline FcRn (FCN-F82W3, Acrobiosystems) (feline)
# assay: SPR Carterra, IgG coupled, pH 6.0
Value expressed in M⁻¹ s⁻¹; do not type the unit.

1) anti-NGF feline IgG1a, Fc variant T286E, S428H (antibody, part only; not given: Anti-NGF variable domains, not shown: another chain or arm of the molecule; small tags and cut ends) Fc: PPEMLGGPSIFIFPPKPKDTLSISRTPEVTCLVVDLGPDDSDVQITWFVDNTQVYEAKTSPREEQFNSTYRVVSVLPILHQDWLKGKEFKCKVNSKSLPSPIERTISKAKGQPHEPQVYVLPPAQEELSRNKVSVTCLIKSFHPPDIAVEWEITGQPEPENNYRTTPPQLDSDGTYFVYSKLSVDRSHWQRGNTYTCSVHHEALHSHHTQKSLTQSPGK | 598000
2) anti-NGF feline IgG1a, Fc variant R334D (antibody, part only; not given: anti-NGF variable domains, light chain, not shown: another chain or arm of the molecule; small tags and cut ends) Fc: PPEMLGGPSIFIFPPKPKDTLSISRTPEVTCLVVDLGPDDSDVQITWFVDNTQVYTAKTSPREEQFNSTYRVVSVLPILHQDWLKGKEFKCKVNSKSLPSPIEDTISKAKGQPHEPQVYVLPPAQEELSRNKVSVTCLIKSFHPPDIAVEWEITGQPEPENNYRTTPPQLDSDGTYFVYSKLSVDRSHWQRGNTYTCSVSHEALHSHHTQKSLTQSPGK | 423000

Next, consider the following binder.
q: Using known records, supply kon for anti-NGF feline IgG1a, Fc variant S290V, R334D (antibody, part only; not given: anti-NGF variable domains, light chain, not shown: another chain or arm of the molecule; small tags and cut ends) Fc: PPEMLGGPSIFIFPPKPKDTLSISRTPEVTCLVVDLGPDDSDVQITWFVDNTQVYTAKTVPREEQFNSTYRVVSVLPILHQDWLKGKEFKCKVNSKSLPSPIEDTISKAKGQPHEPQVYVLPPAQEELSRNKVSVTCLIKSFHPPDIAVEWEITGQPEPENNYRTTPPQLDSDGTYFVYSKLSVDRSHWQRGNTYTCSVSHEALHSHHTQKSLTQSPGK
a: 931000
